Data origin, for the record: patent US20250197359A1

- EXPERIMENTAL_PROTOCOL: Caco-2 permeability (A-B and B-A)
- Type: in vitro ADME
- CONDITION_CONTEXT: human, Caco-2; quotient of Papp(BA) to Papp(AB)
MEASURE_NAME: efflux ratio
The answer should be a number; do not append a unit.

| COMPOUND | efflux ratio |
| --- | --- |
| CC(C)C(N/C(=N/S(=O)(=O)c1ccc(C(F)(F)F)cc1)N1CCC(c2ccccc2)C(c2ccc(Cl)cc2)=N1)C(N)=O (single isomer, unassigned) [Compound 29b] | 0.4 |
| C/C(N)=N\C(=N\S(=O)(=O)c1ccc(C(F)(F)F)cc1)N1CCC(c2ccccc2)C(c2ccc(Cl)cc2)=N1 (stereo not shown) [Compound 10b] | 0.8 |
| CC(C)(C)/C(N)=N/C(=N/S(=O)(=O)c1ccc(C(F)(F)F)cc1)N1CCC(c2ccccc2)C(c2ccc(Cl)cc2)=N1 (stereo not shown) [Compound 10o] | 0.2 |

Problem: Please supply the value of reported efflux ratio for the item N/C(=N\C(=N\S(=O)(=O)c1ccc(C(F)(F)F)cc1)N1CCC(c2ccccc2)C(c2ccc(Cl)cc2)=N1)c1ccc(F)cc1F (stereo not shown) [Compound 10p]
Result: 0.4
